These data points were gathered from paper PMC9021288.

# assay_method_text: Human hepatocyte clearance (relay assay)
# reported_conditions: human, % Remaining, 10 µM, hepatocyte donor HC02, 0 h, single replicates

smiles_string	unit_symbol	remaining at 0 h, 10 µM
CCOc1ccc2ccc(=O)oc2c1	%	100

* * *

# assay_method_text: Blood concentration and PK in infected NSG mice after single oral dose
# Format: in vivo, mouse
# reported_conditions: female, NSG (NODscidIL2Rγnull), mouse, whole blood, po; 50 mg/kg p.o.; read-out: Cmax

compound	Cmax, ng/mL
C[C@@H](CNC(=O)[C@H](O)C(C)(C)CO)NC(=O)c1cc(C#N)ccc1F [MMV693182]	5270

* * *

# assay_method_text: in vitro
# reported_conditions: human, hepatocytes, % Remaining
measured_parameter: remaining at 0 h, 10 µM (%)

molecule	measured_parameter	result
CCCCNC(=O)NS(=O)(=O)c1ccc(C)cc1 [Tolbutamide]	remaining at 0 h, 10 µM	100
